Entries annotated with measured IC50
target: TNT Quick Coupled Transcription/Translation System (luciferase synthesis); assay type: biochemical; conditions: log(inhibitor) vs. response, variable slope (four parameters); unit from head concentration (nM); read-out: TNT-luciferase IC50 (best-fit value)
The reply should be a number in nM, with the unit left off.

| chemical_structure | units_symbol | IC50 |
| --- | --- | --- |
| Cc1c(Br)cnc2c1ncn2CC(=O)C[C@H]1NCCC[C@@H]1O | nM | 595 |

For O=C(C[C@H]1NCCC[C@@H]1O)Cn1cnc2ccc(-c3cccc(F)c3)cc21 , what is its reported IC50?
6340

And the next one, Cc1c(Cl)ccc2c1ncn2CC(=O)C[C@H]1NCCC[C@@H]1O ?
2550

And the next one, O[C@H]1CCCN[C@@H]1CCCn1cnc2c(Cl)c(Cl)ccc21 ?
50300

---

experiment: Cytotoxicity assay in cells stably expressing EV; conditions: human
assay_metric: IC50 at 72 h (µM)
The reply should be a number in µM, with the unit left off.

For O[C@H]1CCCN[C@@H]1CCCn1cnc2c(Cl)c(Cl)ccc21 [DWN12088] , what is its reported IC50 at 72 h?
24

---

experiment: Cytotoxicity assay in cells stably expressing EV; conditions: human, Cytotoxicity, % of control, average, WI-26 VA4 EV; 30000 nM
assay_metric: activity at 72 h, 30 µM (%)
The reply should be a number in %, with the unit left off.

For O[C@H]1CCCN[C@@H]1CCCn1cnc2c(Cl)c(Cl)ccc21 , what is its reported activity at 72 h, 30 µM?
42.2

---

test system: WI‐26 VA4 cells stably expressing EV (empty vector); assay: Collagen ELISA in cells stably expressing EV; conditions: Homo sapiens, WI26VA4, read-out: IC50, collagen level
Entries annotated with measured pIC50
In plain terms, pIC50 is the concentration in mol/L turned into minus its base-10 logarithm.

| compound | assay_metric | measurement |
| --- | --- | --- |
| O[C@H]1CCCN[C@@H]1CCCn1cnc2c(Cl)c(Cl)ccc21 | pIC50 | 5.72 |

# ---- query compound ----
Look up pIC50 with WI‐26 VA4 cells stably expressing EV (empty vector) for this compound: O=C(CC1NCCCC1O)Cn1cnc2cc(Br)c(Cl)cc2c1=O (centres unmarked) [HF, Halofuginone, reference compound]
7.82

---

Entries annotated with measured activity at 10 µM
system: WI‐26 VA4 cells; test: CellTiter‐Glo assay (cytotoxicity); conditions: Homo sapiens, WI26VA4, read-out: CellTiter-Glo % of control, 10000 nM; Experiment #1, replicates
Phrase the answer as number then unit, nothing more needed.

| molecule | assay_metric | measurement |
| --- | --- | --- |
| O[C@H]1CCCN[C@@H]1CCCn1cnc2c(Cl)c(Cl)ccc21 | activity at 10 µM | 71.7% |

For Cc1c(Cl)ccc2c1ncn2CC(=O)C[C@H]1NCCC[C@@H]1O , what is its reported activity at 10 µM?
30.3%

And the next one, O=C(C[C@H]1NCCC[C@@H]1O)Cn1cnc2ccc(-c3cccc(F)c3)cc21 ?
26.6%

And the next one, Cc1c(Br)cnc2c1ncn2CC(=O)C[C@H]1NCCC[C@@H]1O ?
14.4%

And the next one, O=C(CC1NCCCC1O)Cn1cnc2cc(Br)c(Cl)cc2c1=O (centres unmarked) [HF, Halofuginone, reference compound] ?
1.85%

---

assay: Cytotoxicity assay in cells stably expressing EV; details: human, Cytotoxicity, % of control (single replicates, Experiment #1-#4), WI-26 VA4 EV; 300000 nM
assay_metric: activity at 72 h, 300 µM (%)
The reply should be a number in %, with the unit left off.

For O[C@H]1CCCN[C@@H]1CCCn1cnc2c(Cl)c(Cl)ccc21 , what is its reported activity at 72 h, 300 µM?
2.25

---

test system: WI‐26 VA4 cells; assay: Collagen ELISA (secreted pro‐collagen I); settings: Homo sapiens, WI26VA4, read-out: Collagen, % of control, average, 30 nM; average
assay_metric: activity at 0.03 µM (%)
The reply should be a number in %, with the unit left off.

The following compounds have reported results that may help.
| compound | activity at 0.03 µM [%] |
| --- | --- |
| O=C(CC1NCCCC1O)Cn1cnc2cc(Br)c(Cl)cc2c1=O (centres unmarked) [HF, Halofuginone, reference compound] | 21.6 |
| Cc1c(Cl)ccc2c1ncn2CC(=O)C[C@H]1NCCC[C@@H]1O | 97.7 |
| O=C(C[C@H]1NCCC[C@@H]1O)Cn1cnc2ccc(-c3cccc(F)c3)cc21 | 108 |
| Cc1c(Br)cnc2c1ncn2CC(=O)C[C@H]1NCCC[C@@H]1O | 80.4 |

# ---- query compound ----
For O[C@H]1CCCN[C@@H]1CCCn1cnc2c(Cl)c(Cl)ccc21 , what is its reported activity at 0.03 µM?
103

---

target: His‐PARS1 (Homo sapiens, UniProt P07814); construct: His‐PARS1 (1001–1,512 aa); made in house; host or cells: Escherichia coli; test: Surface plasmon resonance (SPR); format: binding; details: KD, - ATP
Sequence (P07814 1001-1512 limits assumed): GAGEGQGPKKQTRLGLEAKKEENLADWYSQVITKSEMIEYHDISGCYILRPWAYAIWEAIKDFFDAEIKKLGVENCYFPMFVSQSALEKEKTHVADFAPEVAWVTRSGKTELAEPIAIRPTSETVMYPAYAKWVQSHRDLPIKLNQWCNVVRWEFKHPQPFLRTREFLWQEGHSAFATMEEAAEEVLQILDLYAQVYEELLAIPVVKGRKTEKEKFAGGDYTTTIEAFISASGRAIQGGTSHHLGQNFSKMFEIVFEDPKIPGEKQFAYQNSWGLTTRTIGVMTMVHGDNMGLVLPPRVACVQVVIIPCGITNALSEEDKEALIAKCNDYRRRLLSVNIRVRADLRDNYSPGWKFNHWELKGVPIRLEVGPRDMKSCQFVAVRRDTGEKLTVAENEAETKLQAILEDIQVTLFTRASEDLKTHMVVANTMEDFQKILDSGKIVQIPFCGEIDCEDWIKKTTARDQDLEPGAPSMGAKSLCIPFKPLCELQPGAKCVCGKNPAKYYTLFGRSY
pKd: −log10 of the molar value.
assay_metric: pKd

For O[C@H]1CCCN[C@@H]1CCCn1cnc2c(Cl)c(Cl)ccc21 , what is its reported pKd?
< 3.52

---

assay: in vitro; details: human, Cytotoxicity, % of control (single replicates, Experiment #1-#4)
assay_metric: activity at 72 h, 0.01 µM (%)
The reply should be a number in %, with the unit left off.

For O=C(CC1NCCCC1O)Cn1cnc2cc(Br)c(Cl)cc2c1=O (stereo not shown) [HF, Halofuginone, reference compound] , what is its reported activity at 72 h, 0.01 µM?
96.3

---

test system: WI‐26 VA4 cells; test: Collagen ELISA (secreted pro‐collagen I); settings: Homo sapiens, WI26VA4, read-out: Collagen, % of control, average, 100 nM; average
assay_metric: activity at 0.1 µM (%)
The reply should be a number in %, with the unit left off.

The following molecules have reported results that may help.
| molecule | target | units_symbol | activity at 0.1 µM |
| --- | --- | --- | --- |
| O=C(CC1NCCCC1O)Cn1cnc2cc(Br)c(Cl)cc2c1=O (centres unmarked) [HF, Halofuginone, reference compound] | WI‐26 VA4 cells | % | 3.57 |
| Cc1c(Cl)ccc2c1ncn2CC(=O)C[C@H]1NCCC[C@@H]1O [DWN11748] | WI‐26 VA4 cells | % | 88.9 |
| O[C@H]1CCCN[C@@H]1CCCn1cnc2c(Cl)c(Cl)ccc21 [DWN12088] | WI‐26 VA4 cells | % | 105 |
| O=C(C[C@H]1NCCC[C@@H]1O)Cn1cnc2ccc(-c3cccc(F)c3)cc21 [DWN11251] | WI‐26 VA4 cells | % | 90.8 |

# ---- query molecule ----
Look up activity at 0.1 µM with WI‐26 VA4 cells for this molecule: Cc1c(Br)cnc2c1ncn2CC(=O)C[C@H]1NCCC[C@@H]1O [DWN11761]
20.6

---

biological target: His‐PARS1 (Homo sapiens); construct: His‐PARS1 (1001–1,512 aa); made in house; host or cells: Escherichia coli; assay: Surface plasmon resonance (SPR); assay type: binding; details: KD, + ATP (1 mM)
assay_metric: Kd

Look up Kd with His‐PARS1 (Homo sapiens) for this compound: O[C@H]1CCCN[C@@H]1CCCn1cnc2c(Cl)c(Cl)ccc21
31.1 µM

---

assay: CellTiter‐Glo assay (cytotoxicity); conditions: human, WI-26 VA4 cells
Entries annotated with measured CC50 at 72 h
The reply should be a number in nM, with the unit left off.

The following compounds have reported results that may help.
| compound | measurement |
| --- | --- |
| O=C(C[C@H]1NCCC[C@@H]1O)Cn1cnc2ccc(-c3cccc(F)c3)cc21 [DWN11251] | 1820 |
| Cc1c(Cl)ccc2c1ncn2CC(=O)C[C@H]1NCCC[C@@H]1O [DWN11748] | 1440 |

For Cc1c(Br)cnc2c1ncn2CC(=O)C[C@H]1NCCC[C@@H]1O [DWN11761] , what is its reported CC50 at 72 h?
294

---

experiment: Two‐week repeated‐dose toxicity study, HF versus DWN12088; assay type: in vivo, mice; conditions: male, ICR (CrljOri: CD1), mouse, in vivo; oral once daily for 2 weeks, ICR mice
assay_metric: NOAEL at 2 weeks (mg/kg)
The reply should be a number in mg/kg, with the unit left off.

For O[C@H]1CCCN[C@@H]1CCCn1cnc2c(Cl)c(Cl)ccc21 , what is its reported NOAEL at 2 weeks?
60

---

molecular target: PARS1 WT (Homo sapiens, UniProt P07814); construct: His‐PARS1 (1001–1,512 aa); made in house; host or cells: Escherichia coli; assay: Microscale thermophoresis (MST), PARS1 WT; format: binding; conditions: Kd, WT, 5 mM ATP; mean ± SD; unit inferred
Sequence (P07814 1001-1512 limits assumed): as above
assay_metric: Kd (µM)
The reply should be a number in µM, with the unit left off.

For O[C@H]1CCCN[C@@H]1CCCn1cnc2c(Cl)c(Cl)ccc21 , what is its reported Kd?
20.5

Each recorded value in this set is attributed to paper PMC10331583.
